Could you please report measured ED50 for the items listed next?
- System: Female CD-1 mice
- Method description: Tail-flick assay
- Format: in vivo
- Run parameters: Mus musculus, injection, % MPE, 10-second cut-off
Just the number in mg/kg, nothing appended.

Please report the recorded ED50 for C1CC1COc1nsnc1C1C2CC3CC1CN(C3)C2 (stereo not shown) .
1.4

Which ED50 is listed for CCSc1nsnc1C1C2CC3CC1CN(C3)C2 (stereo not shown) ?
0.3

# query: ED50 of entry CCCCSc1nsnc1C1C2CC3CC1CN(C3)C2 (stereo not shown)
0.3

Which value of ED50 has been reported for CCCOc1nsnc1C1C2CC3CC1CN(C3)C2 (stereo not shown) in the records?
4.5

###

For each record, write down the corresponding Side Effect Profile at ED50 Dose: Hypothermia.
- System: Female CD-1 mice
- Method description: Body temperature (rectal probe)
- Format: in vivo
- Run parameters: at tail-flick ED50 dose; core temperature
Quick note: give the figure in °C, leave out the unit.

Entry CCCCOc1nsnc1C1C2CC3CC1CN(C3)C2 (stereo not drawn) : reported Side Effect Profile at ED50 Dose: Hypothermia = ?
2.0

Could you tell me which Side Effect Profile at ED50 Dose: Hypothermia is on file for C(CC1CC1)Oc1nsnc1C1C2CC3CC1CN(C3)C2 (stereo not drawn) ?
1.5

Which Side Effect Profile at ED50 Dose: Hypothermia reading was recorded for the compound CCCOc1nsnc1C1C2CC3CC1CN(C3)C2 (stereo not drawn) ?
1.0

Using the record for CCCSc1nsnc1C1C2CC3CC1CN(C3)C2 (stereo not drawn) , report its Side Effect Profile at ED50 Dose: Hypothermia.
0.5

Endpoint output: Side Effect Profile at ED50 Dose: Hypothermia of CCSc1nsnc1C1C2CC3CC1CN(C3)C2 (stereo not drawn) . Value?
1

Tell me the measured Side Effect Profile at ED50 Dose: Hypothermia of CCC(C)Oc1nsnc1C1C2CC3CC1CN(C3)C2 (stereo not drawn) , please.
0

What does the data say about its Side Effect Profile at ED50 Dose: Hypothermia? Entry: CCOc1nsnc1C1C2CC3CC1CN(C3)C2 (stereo not drawn)
0.5

What does the record list as Side Effect Profile at ED50 Dose: Hypothermia for CCCCSc1nsnc1C1C2CC3CC1CN(C3)C2 (stereo not drawn) ?
0

Fill in the blank: the reported Side Effect Profile at ED50 Dose: Hypothermia of COc1nsnc1C1C2CC3CC1CN(C3)C2 (stereo not drawn) is ____.
0

Given the entry CC(C)COc1nsnc1C1C2CC3CC1CN(C3)C2 (stereo not drawn) , report its measured Side Effect Profile at ED50 Dose: Hypothermia.
0

So what does the record say about Side Effect Profile at ED50 Dose: Hypothermia for C1CC1COc1nsnc1C1C2CC3CC1CN(C3)C2 (stereo not drawn) ?
1.5

###

- Tested on: Female CD-1 mice
- Method description: Sedation by visual inspection
- Type: in vivo
- Run parameters: at tail-flick ED50 dose
Property: Side Effect Profile at ED50 Dose: Sedation

These solved cases illustrate the format of a correct answer.
CCCOc1nsnc1C1C2CC3CC1CN(C3)C2 (stereo not drawn)    Slight
CCCCOc1nsnc1C1C2CC3CC1CN(C3)C2 (stereo not drawn)    Slight
C1CC1COc1nsnc1C1C2CC3CC1CN(C3)C2 (stereo not drawn)    Sedation
COc1nsnc1C1C2CC3CC1CN(C3)C2 (stereo not drawn)    No sedation
CC(C)COc1nsnc1C1C2CC3CC1CN(C3)C2 (stereo not drawn)    No sedation
CCOc1nsnc1C1C2CC3CC1CN(C3)C2 (stereo not drawn)    No sedation
C(CC1CC1)Oc1nsnc1C1C2CC3CC1CN(C3)C2 (stereo not drawn)    Slight
CCSc1nsnc1C1C2CC3CC1CN(C3)C2 (stereo not drawn)    Sedation

Param item = CCC(C)Oc1nsnc1C1C2CC3CC1CN(C3)C2 (stereo not drawn) ; retrieve measured Side Effect Profile at ED50 Dose: Sedation.
No sedation

Reported Side Effect Profile at ED50 Dose: Sedation for CCCCSc1nsnc1C1C2CC3CC1CN(C3)C2 (stereo not drawn) : what is it?
No sedation

What does the data say about its Side Effect Profile at ED50 Dose: Sedation? Entry: C1CC1CSc1nsnc1C1C2CC3CC1CN(C3)C2 (stereo not drawn)
Sedation

###

Provide the reported Human M4 in CHO-K1 Assay of each item.
- Target of assay: cloned human M4 mAChRs (Homo sapiens)
- Construct: expressed in transfected cells; host or cells: CHO-K1 cells (membrane preparation)
- Sequence (P08173 1-479): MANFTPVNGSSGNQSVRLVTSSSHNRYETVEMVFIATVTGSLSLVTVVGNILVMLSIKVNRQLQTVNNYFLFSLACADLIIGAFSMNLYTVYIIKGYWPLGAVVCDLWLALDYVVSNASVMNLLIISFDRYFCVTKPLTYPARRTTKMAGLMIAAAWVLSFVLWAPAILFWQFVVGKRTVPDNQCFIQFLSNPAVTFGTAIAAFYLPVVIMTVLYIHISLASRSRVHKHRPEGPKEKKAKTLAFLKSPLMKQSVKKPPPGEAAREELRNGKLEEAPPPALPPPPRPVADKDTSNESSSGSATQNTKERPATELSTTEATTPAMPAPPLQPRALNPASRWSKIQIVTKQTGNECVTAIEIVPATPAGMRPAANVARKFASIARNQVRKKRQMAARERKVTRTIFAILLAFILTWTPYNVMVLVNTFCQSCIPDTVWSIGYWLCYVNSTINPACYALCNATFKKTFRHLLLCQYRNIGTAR
- Method description: Binding to cloned human M4 mAChRs expressed in CHO-Kl cells
- Run parameters: 2.5 nM 3H-oxotremorine M, CHO-Kl M4 membranes, pH 7
Provide only the numeric value, understood in nM.

Any idea what its Human M4 in CHO-K1 Assay is? The compound is CCOc1nsnc1C1C2CC3CC1CN3C2 (stereo not drawn)
4.6

Can you share its Human M4 in CHO-K1 Assay? I mean this compound: CCCOc1nsnc1C1C2CC3CC1CN(C3)C2 (stereo not drawn)
0.74

So what does the record say about Human M4 in CHO-K1 Assay for CCCCOc1nsnc1C1C2CC3CC1CN(C3)C2 (stereo not drawn) [Cmpd 14] ?
3.8

I'd like to know its Human M4 in CHO-K1 Assay. The compound in question is CCOc1nsnc1C1C2CC3CC1CN(C3)C2 (stereo not drawn)
0.46

###

- Target of assay: cloned human M4 mAChRs (Homo sapiens)
- Construct: expressed in transfected cells; host or cells: CHO-K1 cells (membrane preparation)
- Method description: Binding to cloned human M4 mAChRs expressed in CHO-Kl cells
- Run parameters: 2.5 nM 3H-oxotremorine M, CHO-Kl M4 membranes, pH 7
Property: Human M4 in CHO-K1 Assay

Please give the measured Human M4 in CHO-K1 Assay for this compound: CCCCOc1nsnc1C1C2CC3CC1CN(C3)C2 (stereo not shown) [Cmpd 13]
10 nM

Please report the recorded Human M4 in CHO-K1 Assay for COc1nsnc1C1C2CC3CC1CN(C3)C2 (stereo not shown) [Cmpd 21] .
5.9 nM

Item CCC(C)Oc1nsnc1C1C2CC3CC1CN(C3)C2 (stereo not shown) [Cmpd 27] has what recorded Human M4 in CHO-K1 Assay?
1.55 nM

Bench note: what Human M4 in CHO-K1 Assay did CCCOc1nsnc1C1C2CC3CC1CN3C2 (stereo not shown) [Cmpd 36] show?
3.2 nM

###

- Tested on: Female CD-1 mice
- Method description: Tail-flick assay
- Format: in vivo
- Run parameters: Mus musculus, injection, % MPE, 10-second cut-off
Could you please report measured ED50 for the items listed next?

I have this compound here, C1CC1CSc1nsnc1C1C2CC3CC1CN(C3)C2 (stereo not drawn) [Cmpd 32] , and I need its recorded ED50.
< 1 mg/kg

# lookup: ED50 of CC(C)COc1nsnc1C1C2CC3CC1CN(C3)C2 (stereo not drawn) [Cmpd 18]
> 5 mg/kg

I would be grateful if you could share the reported ED50 for CCCCOc1nsnc1C1C2CC3CC1CN(C3)C2 (stereo not drawn) [Cmpd 14] .
> 10 mg/kg
